Some compounds, each annotated with its measured bioavailability.
test: Oral bioavailability in rat; assay type: ADME, organism-based; details: in vivo
Readout: bioavailability (%)

>  <Compound smiles>
CN(C)S(=O)(=O)N(C)c1c2c(c(O)c3ncccc13)C(=O)N(Cc1ccc(F)cc1)C2

>  <Observed>
13

$$$$
>  <Compound smiles>
O=C1c2c(c(N3CCCS3(=O)=O)c3cccnc3c2O)CN1Cc1ccc(F)cc1

>  <Observed>
4

$$$$

====

test: Aqueous solubility at pH 7.3; assay type: physicochemical
Readout: solubility (µM)

>  <Compound smiles>
CN(C)C(=O)N(C)c1c2c(c(O)c3ncccc13)C(=O)N(Cc1ccc(F)cc1)C2

>  <Display unit>
µM

>  <Observed>
844

$$$$
>  <Compound smiles>
O=C1c2c(c(N3CCCS3(=O)=O)c3cccnc3c2O)CN1Cc1ccc(F)cc1

>  <Display unit>
µM

>  <Observed>
2.8

$$$$
>  <Compound smiles>
CN(C)S(=O)(=O)N(C)c1c2c(c(O)c3ncccc13)C(=O)N(Cc1ccc(F)cc1)C2

>  <Display unit>
µM

>  <Observed>
4.5

$$$$

====

assay: Inhibition of HIV integrase strand transfer activity; set-up: species or system Human immunodeficiency virus
pIC50: −log10 of the molar value.

>  <Compound smiles>
O=C1c2c(c(C(=O)N3CCOCC3)c3cccnc3c2O)CN1Cc1ccc(F)cc1

>  <pIC50>
7.30

$$$$
>  <Compound smiles>
CC(=O)N(C)c1c2c(c(O)c3ncccc13)C(=O)N(Cc1ccc(F)cc1)C2

>  <pIC50>
7.00

$$$$
>  <Compound smiles>
CN(C)S(=O)(=O)N(C)c1c2c(c(O)c3ncccc13)C(=O)N(Cc1ccc(F)cc1)C2

>  <pIC50>
7.21

$$$$
>  <Compound smiles>
CN(C)C(=O)C(=O)N(C)c1c2c(c(O)c3ncccc13)C(=O)N(Cc1ccc(F)cc1)C2

>  <pIC50>
6.58

$$$$
>  <Compound smiles>
CN(C)C(=O)N(C)c1c2c(c(O)c3ncccc13)C(=O)N(Cc1ccc(F)cc1)C2

>  <pIC50>
7.15

$$$$
>  <Compound smiles>
O=C1c2c(c(N3CCCS3(=O)=O)c3cccnc3c2O)CN1Cc1ccc(F)cc1

>  <pIC50>
7.89

$$$$
>  <Compound smiles>
Cc1nnc(C(=O)NC(C)(C)c2nc(C(=O)NCc3ccc(F)cc3)c(O)c(=O)n2C)o1

>  <pIC50>
7.57

$$$$

====

Some compounds, each annotated with its measured half-life.
assay: Half life in iv dosed rat; format: ADME, organism-based; conditions: in vivo

>  <Compound smiles>
O=C1c2c(c(N3CCCS3(=O)=O)c3cccnc3c2O)CN1Cc1ccc(F)cc1

>  <half-life [min]>
36

$$$$
>  <Compound smiles>
CN(C)S(=O)(=O)N(C)c1c2c(c(O)c3ncccc13)C(=O)N(Cc1ccc(F)cc1)C2

>  <half-life [min]>
54

$$$$

====

Some compounds, each annotated with its measured clearance.
experiment: Total clearance in iv dosed rat; assay type: ADME, organism-based; conditions: in vivo

>  <Compound smiles>
O=C1c2c(c(N3CCCS3(=O)=O)c3cccnc3c2O)CN1Cc1ccc(F)cc1

>  <clearance>
25.5 mL/min/kg

$$$$
>  <Compound smiles>
CN(C)S(=O)(=O)N(C)c1c2c(c(O)c3ncccc13)C(=O)N(Cc1ccc(F)cc1)C2

>  <clearance>
3.83 mL/min/kg

$$$$
